TEST METHOD NOTES: Plasma pharmacokinetics of Ge in mice after i.v., i.n. and i.g. administration of Gardenia-Borneol co-compound
Format: in vivo
CONDITION DETAILS: mouse, inhaled or intranasal, plasma, i.n., 18 mg/kg gardenia extract + 18 mg/kg borneol, read-out: AUC0–120 (converted)
ASSAY READOUT: AUC(0-t) (ng·h/mL)
One number for each entry, in ng·h/mL.

Quote AUC(0-t) reported for COC(=O)C1=CO[C@@H](O[C@@H]2O[C@H](CO)[C@@H](O)[C@H](O)[C@H]2O)[C@@H]2C(CO)=CC[C@H]12 [Ge, geniposide] please.
4620
